This collection of values is drawn from ChEMBL document CHEMBL1138371.

- Species on record: Homo sapiens
- PROCEDURE SUMMARY: Inhibition of aggrecanase at 1 uM
Reported inhibition is given for each of the following compounds.
Write the answer as a number in %, unit excluded.

Field: example entries. Status: answers known.
[[record]]
compound = "Cc1cc(COc2ccc(C(=O)NC3COCC34C(=O)NC(=O)NC4=O)cc2)c2ccccc2n1 (stereo not drawn)"
unit_string = "%"
assay_value = 12

[[record]]
compound = "Cc1cc(COc2ccc(C(=O)NCC3(C4CCN(C)CC4)C(=O)NC(=O)NC3=O)cc2)c2ccccc2n1"
unit_string = "%"
assay_value = 15

[[record]]
compound = "Cc1cc(COc2ccc(C(=O)NCC3(C4CCN(C(C)C)CC4)C(=O)NC(=O)NC3=O)cc2)c2ccccc2n1"
unit_string = "%"
assay_value = 21

[[record]]
compound = "Cc1cc(COc2ccc(C(=O)NC3CCCC34C(=O)NC(=O)NC4=O)cc2)c2ccccc2n1 (stereo not drawn)"
unit_string = "%"
assay_value = 0

[[record]]
compound = "Cc1cc(COc2ccc(C(=O)NCC3(C4CCN(C(=O)C(C)(C)C)CC4)C(=O)NC(=O)NC3=O)cc2)c2ccccc2n1"
unit_string = "%"
assay_value = 10


input: # query: inhibition of entry CC(=O)N1CCN(C2(CNC(=O)c3ccc(OCc4cc(C)nc5ccccc45)cc3)C(=O)NC(=O)NC2=O)CC1
output: 21

input: Which inhibition value belongs to Cc1cc(COc2ccc(C(=O)NCC3(N4CCN(C(C)C)CC4)C(=O)NC(=O)NC3=O)cc2)c2ccccc2n1 ?
output: 20

input: Can you share its inhibition? I mean this compound: Cc1cc(COc2ccc(C(=O)NCC3(NC(=O)OC(C)(C)C)C(=O)NC(=O)NC3=O)cc2)c2ccccc2n1
output: 16
